Values compiled from patent US20100261778.

# system_under_test: T1, Killin/N8-50 peptide (Homo sapiens, UniProt B2CW77 SEQ:8-49)
# T1 chain: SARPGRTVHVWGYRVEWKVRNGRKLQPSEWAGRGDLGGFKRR
# measurement_description: EMSA; apparent Kd; 20 mM Tris-Cl pH 8.4, 25 mM KCl, 1.5 mM MgCl2, 100 ug/mL BSA, RT
# test_parameters: protein: synthetic; tags: chemically synthesized 42 aa peptide (Sigma-Genosys, at least 70% purity); label: 32P (Klenow fill-in); replication fork with unpaired arms
metric: Kd (nM)
Please respond with the number in nM and leave the unit unwritten.

Documented Kd of LL/RL artificial replication fork (structured_DNA) DNA 1: TTTGCACGTCGGATCCGACCCAGACTACGGAGGCC DNA 2: CCGGAGGCATCAGACGGTCGGATCCGACGTGC : 1000
